The reported numbers originate from patent US7196114B2.

The entries below come with measured melting point values attached.

Solved cases (2 shown):
CPD_SMILES: COc1ccc(-c2cc(NC(=O)NC(=O)c3cc(F)c(F)cc3Cl)c(C(N)=O)s2)cc1
melting point: > 300 °C

CPD_SMILES: NC(=O)c1sc(-c2cccs2)cc1NC(=O)NC(=O)c1cc(F)c(F)cc1Cl
melting point: > 250 °C (dec.)

Next up:
# input Quick one: melting point for `NC(=O)c1sc(-c2ccccc2)cc1NC(=O)NC(=O)c1cc(F)c(F)cc1Cl` ?
# output > 300 °C
